# Target entity: human P2X3 receptor (Homo sapiens (Human), UniProt P56373)
# Sequence (P56373 whole entry): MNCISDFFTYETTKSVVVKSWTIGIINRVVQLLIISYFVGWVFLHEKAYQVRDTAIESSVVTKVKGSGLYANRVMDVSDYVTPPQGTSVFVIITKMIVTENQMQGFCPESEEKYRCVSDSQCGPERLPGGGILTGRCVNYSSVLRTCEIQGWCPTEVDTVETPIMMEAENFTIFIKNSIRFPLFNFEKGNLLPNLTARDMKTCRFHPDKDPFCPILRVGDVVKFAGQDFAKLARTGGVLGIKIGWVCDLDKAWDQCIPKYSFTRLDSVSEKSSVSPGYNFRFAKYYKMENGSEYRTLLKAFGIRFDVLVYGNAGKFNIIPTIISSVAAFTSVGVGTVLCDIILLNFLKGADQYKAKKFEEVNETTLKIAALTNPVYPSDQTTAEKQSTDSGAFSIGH
# Method notes: Evaluation of human P2X3 receptor inhibitory activity (Test Example 1-2, FLIPR 384, 384-well, 150 nM ATP)
# Type: cell-based
# Measurement context: human P2X3 receptor in C6BU-1 cells; Test Example 1-2 (compounds I-301 to I-483); read-out: P2X3 IC50
Readout kind: pIC50
Numbers only, as −log10 of the molar value.

Return reported pIC50; argument: O=C(N[C@H]1COC[C@@H]1O)c1cn(Cc2ccc(Cl)cc2)c(Nc2ccc(Oc3cccc(F)n3)cc2)nc1=O 7.96

Give the measured pIC50 of O=C(NCc1ncco1)c1cn(Cc2ccc(Cl)cc2)c(Nc2ccc(Oc3cccc(F)n3)cc2)nc1=O . 7.22

// query pIC50 value for entry COC(=O)CCCn1c(=O)cc(Nc2ccc(Oc3ccc(F)cn3)c(C)n2)n(Cc2ccc(Cl)cc2)c1=O 8.22

// batch mode: one pIC50 value per listed entry
1. COc1cn(Cc2ccc(Cl)cc2)c(Nc2ccc(Oc3cccc(C(=O)O)n3)cc2)nc1=O
2. O=c1c(Nc2ccon2)c[nH]/c(=N\c2ccc(Oc3ccon3)cc2)n1Cc1ccc(Cl)cc1

1: 6.99; 2: 7.68

====

# Target entity: human P2X3 receptor (Homo sapiens (Human), UniProt P56373)
# Method notes: Evaluation of human P2X3 receptor inhibitory activity (Test Example 1-1, FDSS 3000, 96-well, 50 nM ATP)
# Format: cell-based
# Measurement context: human P2X3 receptor in C6BU-1 cells; Test Example 1-1 (compounds I-001 to I-300)
Readout kind: IC50 (nM)
Numbers only, in nM.

Quick check: IC50 of Cc1cc(Nc2ncc(NC(=O)C3CCOCC3)c(=O)n2Cc2ccc(Cl)cc2)ccc1Oc1cccc(F)n1 ? 2

I would be grateful if you could share the reported IC50 for CC(C)(C)OC(=O)N1CCC(C(=O)Nc2c[nH]/c(=N\c3ccc(Oc4ccon4)cc3)n(Cc3ccc(Cl)cc3)c2=O)CC1 . 52

Item under review: CCOC(=O)c1cnc(Nc2ccc(Oc3cccc(C(=O)O)n3)cc2)n(Cc2ccc(Cl)cc2)c1=O . Reported IC50? 2

Bench note: what IC50 did CCn1c(=O)cc(Nc2ccc(Oc3cccc(C(=O)O)n3)cc2)n(Cc2ccc(Cl)cc2)c1=O show? 3

Recorded IC50 of CN(C)CCC(=O)Nc1c[nH]/c(=N\c2ccc(Oc3ccon3)cc2)n(Cc2ccc(Cl)cc2)c1=O , please. 158

Dear colleague, could you send me IC50 for each of the items below? Thanks.
1. O=C(O)c1c[nH]/c(=N\c2ccc(Oc3ccc(F)cn3)c(F)c2)n(Cc2ccc(Cl)cc2)c1=O
2. CCc1oc2ccc(/N=c3\[nH]cc(NC(=O)C4CCOCC4)c(=O)n3Cc3ccc(Cl)cn3)cc2c1C

1. 252
2. 98

====

# Target entity: human P2X3 receptor (Homo sapiens (Human), UniProt P56373)
# Method notes: Evaluation of human P2X3 receptor inhibitory activity (Test Example 1-1, FDSS 3000, 96-well, 50 nM ATP)
# Format: cell-based
# Measurement context: human P2X3 receptor in C6BU-1 cells; Test Example 1-1 (compounds I-001 to I-300)
What pIC50 was measured for each of the following?
Answers are plain numbers, as −log10 of the molar value.

Recorded pIC50 of CCC(=O)Nc1c[nH]/c(=N\c2ccc(Oc3ccc(C(=O)O)nc3)cc2)n(Cc2ccc(Cl)cc2)c1=O [Compound I-092] , please. 7.72

State the recorded pIC50 for every item in the following list.
1. O=C(O)c1c[nH]/c(=N\c2ccc(Oc3ncccc3F)cc2)n(Cc2ccc(Cl)cc2)c1=O [Compound I-108]
2. CCC(=O)Nc1c[nH]/c(=N\c2ccc(Oc3ccon3)cc2)n(Cc2ccc(Cl)cc2)c1=O [Compound I-088]
3. O=C(NC1CCOCC1)c1cn(Cc2ccc(Cl)cc2)c(Nc2ccc(Oc3ccon3)cc2)nc1=O [Compound I-175]
4. CCc1c[nH]/c(=N\c2ccc(Oc3cccc(C(=O)O)n3)c(C)c2)n(Cc2ccc(Cl)cc2)c1=O [Compound I-148]
5. CCc1oc2ccc(/N=c3\[nH]cc(C(C)=O)c(=O)n3Cc3ccc(Cl)cc3)cc2c1C [Compound I-073]
6. CCc1oc2ccc(/N=c3\[nH]cc(CO)c(=O)n3Cc3ccc(Cl)cc3)cc2c1C [Compound I-046]

[6.36, 7.31, 7.43, 7.23, 6.85, 6.56]
